molecular target: human mGlu5a receptor (Homo sapiens (Human), UniProt P41594); test: Intracellular Ca2+ mobilization assay (mGlu5 PAM); assay type: cell-based; conditions: maximal response in % of the maximal stimulatory effect obtained with saturating concentrations of L-glutamate; read-out: Eff. (%)
Sequence (P41594 other isoform, or with tags, fused parts or gaps): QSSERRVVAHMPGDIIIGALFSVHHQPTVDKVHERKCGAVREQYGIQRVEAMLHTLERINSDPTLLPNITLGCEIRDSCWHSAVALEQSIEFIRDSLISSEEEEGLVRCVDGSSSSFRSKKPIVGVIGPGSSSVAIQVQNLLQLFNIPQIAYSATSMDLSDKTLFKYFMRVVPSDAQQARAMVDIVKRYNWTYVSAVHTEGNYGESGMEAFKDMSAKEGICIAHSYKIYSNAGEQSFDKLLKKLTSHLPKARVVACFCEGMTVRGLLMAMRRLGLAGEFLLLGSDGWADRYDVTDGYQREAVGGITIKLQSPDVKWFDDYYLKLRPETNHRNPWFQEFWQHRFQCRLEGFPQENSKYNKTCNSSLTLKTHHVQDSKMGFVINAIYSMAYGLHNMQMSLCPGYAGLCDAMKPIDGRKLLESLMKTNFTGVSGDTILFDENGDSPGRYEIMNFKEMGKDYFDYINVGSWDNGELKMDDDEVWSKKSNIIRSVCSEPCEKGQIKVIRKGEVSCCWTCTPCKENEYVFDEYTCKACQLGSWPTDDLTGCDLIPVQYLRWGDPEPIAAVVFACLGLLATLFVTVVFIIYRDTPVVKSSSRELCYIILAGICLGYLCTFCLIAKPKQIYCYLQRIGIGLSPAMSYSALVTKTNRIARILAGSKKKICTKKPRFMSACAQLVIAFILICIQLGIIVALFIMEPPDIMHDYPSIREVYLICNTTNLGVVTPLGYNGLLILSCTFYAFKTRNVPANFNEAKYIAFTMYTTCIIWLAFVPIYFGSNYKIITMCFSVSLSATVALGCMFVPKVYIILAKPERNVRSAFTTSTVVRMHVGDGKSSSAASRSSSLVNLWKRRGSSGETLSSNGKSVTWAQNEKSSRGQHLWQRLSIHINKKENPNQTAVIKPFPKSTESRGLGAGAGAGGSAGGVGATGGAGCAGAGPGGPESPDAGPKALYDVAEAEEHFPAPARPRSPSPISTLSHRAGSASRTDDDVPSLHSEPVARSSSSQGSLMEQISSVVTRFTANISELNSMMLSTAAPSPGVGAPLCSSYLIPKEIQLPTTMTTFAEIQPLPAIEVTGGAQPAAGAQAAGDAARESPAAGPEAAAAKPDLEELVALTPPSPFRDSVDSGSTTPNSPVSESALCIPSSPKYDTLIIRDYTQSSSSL
Could you please report measured Emax for the items listed next?
Answers are plain numbers, in %.

Some entries whose results are on file:
- CN1C(=O)N(c2cnc(C#Cc3ccc(F)cc3)cn2)CC1(C)C: 49
- CO[C@@H]1C(=O)N(c2ncc(C#Cc3cc(F)ccc3F)cn2)CC1(C)C (single isomer, unassigned): 49
- CN1C(=O)N(c2ccc(C#Cc3cncc(F)c3)cn2)CC1(C)C: 91

Would you kindly look at the next entry?
Entry under review: CC1(C)CCN(c2ncc(C#Cc3ccccc3)cn2)C(=O)C1 . Reported Emax?
90

====

molecular target: human mGlu5a receptor (Homo sapiens (Human)); assay: Intracellular Ca2+ mobilization assay (mGlu5 PAM); type: cell-based; conditions: maximal response in % of the maximal stimulatory effect obtained with saturating concentrations of L-glutamate; read-out: Eff. (%)
REPORTED_METRIC: Emax (%)
Numbers only, in %.

• CC1(C)CCN(c2cnc(C#Cc3ccccc3)cn2)C(=O)O1 = 41
• COC1C(=O)N(c2ccc(C#Cc3cccc(C)c3)cn2)CC1(C)C (racemic) = 56

Request - read-out Emax | tested on human mGlu5a receptor (Homo sapiens (Human)) | compound CC1(C)CCN(c2ccc(C#Cc3cccc(Cl)c3)cn2)C(=O)C1
78

====

Could you please report measured EC50 for the items listed next?
target: human mGlu5a receptor (Homo sapiens (Human), UniProt P41594); experiment: Intracellular Ca2+ mobilization assay (mGlu5 PAM); assay type: cell-based; conditions: HEK-293 cells stably transfected with human mGlu5a; L-glutamate added at EC20 after pre-incubation with test compound; read-out: EC50 (nM) mGlu5PAM
Answers are plain numbers, in nM.

Quick request: EC50 for each listed item, please.
1. CN1C(=O)N(c2ccc(C#Cc3cnn(C)c3)cn2)CC1(C)C [Example 50]
2. CC1(C)CCN(c2ccc(C#Cc3cncc(Cl)c3)cn2)C(=O)O1 [Example 75]

1. 27
2. 27

Quick request: EC50 for each listed item, please.
1. CC1(C)CCN(c2cnc(C#Cc3ccccc3)cn2)C(=O)O1 [Example 168]
2. O=C1N(c2ccc(C#Cc3ccccc3)cn2)CC2CCCCN12 (racemic) [Example 58]

1. 15
2. 33

====

target: human mGlu5a receptor (Homo sapiens (Human), UniProt P41594); assay: Intracellular Ca2+ mobilization assay (mGlu5 PAM); assay type: cell-based; conditions: HEK-293 cells stably transfected with human mGlu5a; L-glutamate added at EC20 after pre-incubation with test compound; read-out: EC50 (nM) mGlu5PAM
Could you please report measured EC50 for the items listed next?
Answers are plain numbers, in nM.

- CC1(C)CCN(c2ccc(C#Cc3cccc(Cl)c3)cn2)C(=O)C1: 25

Quick request: EC50 for each listed item, please.
1. CC1(C)CCC(=O)N(c2ncc(C#Cc3ccccc3)cn2)C1
2. CC1(C)CCN(c2ccc(C#Cc3ccccc3)cn2)C(=O)C1
3. CC1CN(c2ncc(C#Cc3cc(F)ccc3F)cn2)C(=O)OC1(C)C (racemic)

1. 41
2. 12
3. 69

Quick request: EC50 for each listed item, please.
1. O=C1OC2(CC2)CN1c1ccc(C#Cc2cccnc2)cn1
2. CC1CN(c2ncc(C#Cc3cccc(F)c3)cn2)C(=O)OC1(C)C (racemic)

1. 58
2. 39
